- Test system: ATS189
- protocol notes: qHTS profiling for inhibitors of Plasmodium falciparum proliferation (AID 504749); also: nearly all actives have a fitted effect of over 60% in size; also: potency is read from the fitted curve at half-maximal effect
- experimental setup: P. falciparum in erythrocytes, SYBR Green DNA, 72 h; series mostly up to 28.7 µM
Records with an inconclusive call do not appear. Activity calls are given as the source filed them. Calls follow the shape of the dose curve; as a rule, active = well fitted inhibition curve with a large enough effect; inconclusive = small, poorly fitted or top-dose-only effect; inactive = flat fitted curve, though single readings scatter.
measurement label: Potency

[[record]]
molecule = "CCCCCCCCOC(=O)c1ccccc1C(=O)OCCCCCCCC"
measurement_label = "Potency"
result = "inactive"

[[record]]
molecule = "CC[N+](C)(CC)CCOC(=O)C(O)(c1ccccc1)c1ccccc1"
measurement_label = "Potency"
result = "inactive"

[[record]]
molecule = "CCNC(C)Cc1cccc(C(F)(F)F)c1 (centres undefined)"
measurement_label = "Potency"
result = "inactive"

[[record]]
molecule = "CC(C)(C)c1cc(O)ccc1O"
measurement_label = "Potency"
result = "10 µM (active)"


---

- protocol notes: qHTS assay for measurement of the activity of small molecule inhibitors on Zika virus induced Caspase-3 activity in human astrocytoma cells (AID 1224859)
- experimental setup: SNB-19 ZIKV-induced caspase-3/7, luminescence, 6 h; series mostly up to 45.7 µM
Active and inactive are the calls of the source. Calls come from the whole dose curve; as a rule, active = well fitted inhibition curve with a large enough effect; inconclusive = small, poorly fitted or top-dose-only effect; inactive = no such curve, though single readings can be large or run the other way.
measurement label: outcome

[[record]]
compound = "Oc1ccc2c3c1O[C@H]1c4[nH]c5ccccc5c4C[C@@]4(O)C(C2)N(CC2CC2)CCC314 (some centres not stated)"
result = "inactive"

[[record]]
compound = "CO[C@H]1CC=C2CCN3CCC4=C(CC(=O)OC4)[C@]23C1"
result = "inactive"

[[record]]
compound = "CP(=O)(O)C1=CCNCC1"
result = "inactive"

[[record]]
compound = "CCCSP(=O)(OCC)SCCC"
result = "inactive"

[[record]]
compound = "CC(C)[C@@]1(NC(=O)[C@@H]2C[C@@H]3c4cccc5[nH]cc(c45)C[C@H]3N(C)C2)O[C@@]2(O)[C@@H]3CCCN3C(=O)[C@H](Cc3ccccc3)N2C1=O"
result = "inactive"

[[record]]
compound = "CC(N)[C@H](O)c1ccc(O)c(O)c1 (some centres not stated)"
result = "inactive"

[[record]]
compound = "COc1ccc2c(c1)c(CCN1CCOCC1)c(C)n2C(=O)c1cccc(Cl)c1Cl"
result = "inactive"

[[record]]
compound = "CN1CCc2cc(O)cc3c2[C@H]1Cc1ccc(O)c(O)c1-3"
result = "inactive"

[[record]]
compound = "NNC(=O)c1ccc(O)cc1"
result = "inactive"

[[record]]
compound = "C=CCN(C1=NCCN1)c1c(Cl)cccc1Cl"
result = "inactive"

[[record]]
compound = "CCCn1c(=O)c2[nH]c(C3CCCC3)nc2n(CCCOC(=O)c2ccc(S(=O)(=O)F)cc2)c1=O"
result = "inactive"

[[record]]
compound = "NC(N)=NOCC[C@H](N)C(=O)O"
result = "inactive"

[[record]]
compound = "COc1ccc2c(c1)/C(=C/c1cnc[nH]1)C(=O)N2"
result = "inactive"

[[record]]
compound = "CC(C)(O)[C@@H]1C2OC(=O)[C@@H]1[C@]1(O)C[C@H]3O[C@]34C(=O)O[C@H]2[C@]14C (tested in a mixture with another compound)"
result = "inactive"

[[record]]
compound = "O=C(O)c1cc[c]([Hg][Cl])cc1"
result = "inactive"

[[record]]
compound = "OC1CCCCC1N1CCC(c2ccccc2)CC1 (configuration not stated)"
result = "inactive"

[[record]]
compound = "C=CCN1CC[C@]23c4c5ccc(O)c4O[C@@H]2/C(=N/N=C2\\CC[C@@]4(O)C6Cc7ccc(O)c8c7[C@@]4(CCN6CC=C)[C@@H]2O8)CC[C@@]3(O)C1C5"
result = "inactive"

[[record]]
compound = "C[C@]12Cc3cn4c(nc3C=C1CCC1C2CC[C@@]2(C)[C@H]1CC[C@@]2(O)C#N)nc1ccccc14 (some centres not stated)"
result = "inactive"

[[record]]
compound = "NC(N)=Nc1ccc2[nH]c3c(c2c1)C[C@@]1(O)[C@H]2Cc4ccc(O)c5c4[C@@]1(CCN2CC1CC1)[C@H]3O5"
result = "inactive"

[[record]]
compound = "CCCC[N+]1(C)C2CC(OC(=O)[C@H](CO)c3ccccc3)CC1C1OC12 (some centres not stated)"
result = "inactive"

[[record]]
compound = "COc1ccc2[nH]c3c(c2c1)CCNC3"
result = "inactive"

[[record]]
compound = "CC(N)c1cccc(Cl)c1Cl (configuration not stated)"
result = "inactive"

